tested on: 786-0; assay: NCI tumour cell line growth inhibition, 48 h
Activity calls are given as the source filed them. Cut-off read from the data, not from the text of the source: active = GI50 up to about 1.1 µM and inactive = higher. Positions of bridges follow the written chain, without caps; N, C: chain ends. Non-standard residues stand in square brackets, D forms with d. Residues, ends and D or L forms follow the SMILES beside them. ξ: configuration not given here. *: point of attachment. X28 = O=C(/C=C/C=C/C=C/C=C/C=C/C(=O)*)NC1=C(O)CCC1=O; Pro(4R-Me) = C[C@H]1CN[C@H](C(=O)O)C1; NMeA = CN[C@@H](C)C(=O)O; ξF = NC(Cc1ccccc1)C(=O)O; ξA = CC(N)C(=O)O
Could you please pick one outcome from this set? active, inactive

As a guide, the following entries are already answered.
Asked: Identify the outcome logged in this assay for the molecule shown: `COC1=C(Cl)C(=O)c2c(O)ccc(O)c2C1=O`
Given back: active

Asked: Identify the outcome logged in this assay for the molecule shown: `CCC(=O)N1C(=O)C(CC)(CC)C(=O)N1C(=O)CC`
Given back: inactive

Asked: Identify the outcome logged in this assay for the molecule shown: `COc1ccc2oc(OC)c(CC=C(C)C)c(=O)c2c1C`
Given back: inactive

Asked: Identify the outcome logged in this assay for the molecule shown: `CSc1nc(O)c2cn(Cc3ccccc3)nc2n1`
Given back: inactive

Asked: Identify the outcome logged in this assay for the molecule shown: `CCOC(=O)/C(=C\n1c(=O)sc2ccccc21)C(=O)c1ccccc1`
Given back: inactive

Asked: Identify the outcome logged in this assay for the molecule shown: `O=C1Nc2ccc(Br)cc2/C1=N/Nc1ccccc1[N+](=O)[O-]`
Given back: inactive

Continuing:
Asked: Identify the outcome logged in this assay for the molecule shown: CC1NC(=O)[C@H](C)N(C)C(=O)[C@@H]2CCCN2C(=O)[C@@H](NC(=O)C(Cc2ccccc2)NC(=O)/C=C/C=C/C=C/C=C/C=C/C(=O)NC2=C(O)CCC2=O)COC(=O)[C@@H]2C[C@@H](C)CN2C1=O (stereo partly drawn) (X28-[ξF]SP[NMeA][ξA][Pro(4R-Me)]; ester 2-C)
Given back: inactive

Asked: Identify the outcome logged in this assay for the molecule shown: `COCCn1cnc2c(Cl)nc(Nc3ccccc3)nc21`
Given back: inactive

Asked: Identify the outcome logged in this assay for the molecule shown: `COC(=O)c1cc(C#N)[nH]c1-c1cccs1`
Given back: inactive

====

test system: A549; assay: NCI tumour cell line growth inhibition, 48 h
Calls of active or inactive are those of the source. Cut-off read from the data, not from the text of the source: active = GI50 up to about 1.1 µM and inactive = higher.
Could you please pick one outcome from this set? active, inactive

As a guide, the following entries are already answered.
Asked: Identify the outcome logged in this assay for the compound shown: `C[C@]12CCC(=O)O[C@H]1CCCCO2`
Given back: inactive

Asked: Identify the outcome logged in this assay for the compound shown: `CC(=O)O[C@H]1[C@H](OC(C)=O)[C@@H](CN=[N+]=[N-])OCO[C@@H]1CN=[N+]=[N-]`
Given back: inactive

Asked: Identify the outcome logged in this assay for the compound shown: `CC(=O)OCOC(=O)CN(CC(=O)OCOC(C)=O)Cc1cc2c(cc1OC(C)=O)Oc1cc(OC(C)=O)c(CN(CC(=O)OCOC(C)=O)CC(=O)OCOC(C)=O)cc1C21OC(=O)c2ccccc21`
Given back: active

Asked: Identify the outcome logged in this assay for the compound shown: `CC1=C(C(=O)Nc2cc(=O)n(C)c(=O)n2C)C(c2ccco2)C(C(=O)Nc2cc(=O)n(C)c(=O)n2C)=C(C)N1`
Given back: inactive

Asked: Identify the outcome logged in this assay for the compound shown: `Fc1cccc2cc3ccc4cccc5ccc(c12)c3c45`
Given back: inactive

Asked: Identify the outcome logged in this assay for the compound shown: COc1cc2c(c(OC)c1OC)-c1ccc(OC)c(=O)cc1C(NC(=O)c1ccc(N=[N+]=[N-])cc1)CC2 (stereo not given)
Given back: active

Asked: Identify the outcome logged in this assay for the compound shown: `CCCCSC1=N/C(=C\c2ccco2)C(Cl)=N1`
Given back: inactive

Asked: Identify the outcome logged in this assay for the compound shown: COc1c(O)cc(/C=C/c2cc(O)cc3c2[C@@]2(C(=O)O3)c3c(O)cc(O)cc3OC2c2cccc(O)c2)cc1O (stereo not given in full)
Given back: inactive

Asked: Identify the outcome logged in this assay for the compound shown: `Cc1cc(N(C)c2ccccc2)nc(N(C)c2ccccc2)n1`
Given back: inactive

Asked: Identify the outcome logged in this assay for the compound shown: `CCOc1cc2c(cc1O)/C(=N\O)C[C@@H]1[C@@H]2CC[C@]2(C)[C@@H](O)CC[C@@H]12`
Given back: active

Continuing:
Asked: Identify the outcome logged in this assay for the compound shown: `N=C1C(=N)c2ccccc2-c2ccccc21`
Given back: inactive

Asked: Identify the outcome logged in this assay for the compound shown: NCCCC1NC(=O)/C(=C(O)/C=C/C2CCC[C@@H]2CC2SCCS2)C1=O (stereo not given in full)
Given back: inactive

Asked: Identify the outcome logged in this assay for the compound shown: Cc1ccc(NC(=O)CC(=O)N2N=C(N(c3ccccc3)c3ccccc3)CC2c2ccccc2)cc1 (stereo not given)
Given back: inactive

Asked: Identify the outcome logged in this assay for the compound shown: NC(=O)NC1C(C(=O)O)N(Cc2ccccc2)C(=O)N1Cc1ccccc1 (stereo not given)
Given back: inactive

Asked: Identify the outcome logged in this assay for the compound shown: C/C(=C\CNc1ncnc2c1ncn2C1CCCCO1)COP(=O)(O)O (stereo not given)
Given back: inactive
